tested on: Wolbachia pipientis; test: Anti-Wolbachia Cell-Based Screen; type: functional; set-up: scale not given: in the data most compounds retested in dose-response had high values; conditions: 5 µM
In all, about 48,000 compounds went through this assay and about 13,000 (27%) showed an effect of 50% or more. The list shows a part of the results.
Here, each record is paired with measured Percent Effect data.
I only need the number, in %, no unit after it.

Below, 3 compounds whose answers are already recorded.
INSERT INTO results (compound, experimental_system, experimental_value) VALUES
  ('COCC1CN(C(=O)c2ccco2)Cc2nccn2C1 (stereo not drawn)', 'Wolbachia pipientis', 4.87),
  ('CN(CCn1cccn1)S(=O)(=O)c1ccc(C#N)cc1', 'Wolbachia pipientis', -4.99),
  ('COCc1ccc(C(=O)N2CCC(Oc3ccccc3)(C(=O)O)CC2)o1', 'Wolbachia pipientis', -4.026);

Record `N#Cc1ccc(NCC(=O)Nc2ncn(Cc3cccnc3)n2)cc1` . Reported Percent Effect: 2.258

Just so you know, measured Percent Effect for `COc1cc(NC(=O)N(C)Cc2ccc(Br)o2)ncn1` came out at 1.624

Noted for `Cc1ncc(CNc2ccc(C(=O)NCc3ccco3)cc2C)s1` : its Percent Effect reads -10.56

Looking up O=C(CC1CC1)N1Cc2nccn2CC(Cn2ncccc2=O)C1 (stereo not drawn) , I see its Percent Effect listed as 90.4

Percent Effect in this record for `Cc1cnc(N)nc1NCCSCc1[nH]cnc1C` : -14.55

Percent Effect reading for `CN(C)CC(=O)N1CC[C@H]2OCC[C@@]2(COCC2CC2)C1` : -4.204

get_value(item= COCC1CN(C(=O)c2ccc(C)o2)Cc2nccn2C1 (stereo not drawn) , readout=Percent Effect) returns -22.35

// `COCc1c(Cl)cccc1NC(=O)NCc1cccc(N(C)C)n1` : Percent Effect value = 23.29

Percent Effect recorded for this compound, `Cc1ccc(CNc2ccc(N3CCC(CO)CC3)cn2)o1` , is -69.41

The reported Percent Effect of the compound O=C(c1ccco1)N1Cc2nccn2CC(Cn2ncccc2=O)C1 (stereo not drawn) was 108.6

###

system: Wolbachia pipientis; test: Anti-Wolbachia Cell-Based Screen; format: functional; parameters: scale not given: in the data most compounds retested in dose-response had high values; details: 5 µM
Screen size: about 48,000 compounds; about 13,000 (27%) showed an effect of 50% or more. The list shows a part of the results.
Recorded measurements of Percent Effect, one per entry

INSERT INTO assay_data (compound, experimental_system, experimental_value) VALUES
  ('Cc1ccc(S(=O)(=O)N2CSCC2C(=O)N(C)C2CC2)cc1Cl (stereo unspecified)', 'Wolbachia pipientis', '4.535%'),
  ('CCN1CCN(S(=O)(=O)c2cc(C)c(Cl)cc2Cl)CC1', 'Wolbachia pipientis', '18.7%'),
  ('CC(NC(=O)Cn1cccn1)c1ccc2c(c1)OCCO2 (stereo unspecified)', 'Wolbachia pipientis', '96.81%'),
  ('CC1(C)OCC2(CO1)CN(S(=O)(=O)c1ccc(Br)s1)C2', 'Wolbachia pipientis', '-6.121%');

For Cc1cc(C(=O)N2CCOC(c3nc(C)n[nH]3)C2)[nH]n1 (stereo unspecified) the compound record lists Percent Effect as -1.43%

For this compound ( `CN(Cc1n[nH]c(=O)n1Cc1cccs1)S(C)(=O)=O` ), measured Percent Effect is 2.826%

Field Percent Effect (entry CC(NC(=O)CNCCn1cccn1)c1ccc2c(c1)OCCO2 (stereo unspecified) ) reads -2.168%

Just so you know, measured Percent Effect for `CCn1cc(S(=O)(=O)N2CCN(S(=O)(=O)c3ccc(Br)s3)CC2)cn1` came out at 99.05%

For record CC(NC(=O)NCCCO)c1ccc2c(c1)OCCO2 (stereo unspecified) the listed Percent Effect is 6.207%

Reported Percent Effect of Cc1ccc(C(O)CNCCn2cccn2)cc1C (stereo unspecified) : -13.13%

Form: compound = c1cnn(Cc2ccc(CN3CCC4(CCCNC4)C3)cc2)c1 (stereo unspecified) ; Percent Effect = 7.706%

Reported Percent Effect for CC(NC(=O)NCCCn1cncn1)c1ccc2c(c1)OCCO2 (stereo unspecified) was 5.809%

###

tested on: Wolbachia pipientis; assay: Anti-Wolbachia Cell-Based Screen; type: functional; design: scale not given: in the data most compounds retested in dose-response had high values; conditions: 5 µM
Hit rate of the full screen: of about 48,000 compounds, about 13,000 (27%) showed an effect of 50% or more. The list shows a part of the results.
# key: entry, value: Percent Effect
Give the value, in units of %, as a plain number.

Examples with their reported Percent Effect follow.
INSERT INTO assay_data (molecule, measured_quantity, u, experimental_value) VALUES
  ('Cc1occc1C(=O)N1CCO[C@H]2[C@H](Oc3cccnc3)CC[C@@H]21.O=C(O)C(F)(F)F', 'Percent Effect', '%', -18.12),
  ('CC(C)COC(=O)N1CC(=O)N(CCc2ccccc2)CC(O)C1 (stereo not given)', 'Percent Effect', '%', 128.8),
  ('Cn1c(C2CC2)nc2c1CCN(CC(=O)NC1CCCCNC1=O)C2 (stereo not given)', 'Percent Effect', '%', -7.835),
  ('O=C(CS(=O)(=O)Cc1ccc(F)cc1)NC1CCCCNC1=O (stereo not given)', 'Percent Effect', '%', 104.6),
  ('O=C(CS(=O)(=O)Cc1ccc(F)cc1)NCc1ccccc1F', 'Percent Effect', '%', -12.49);

Quick note, Percent Effect for CC(C)CS(=O)(=O)CC(=O)NC1CCCCNC1=O (stereo not given) landed at 105

Percent Effect for CC(=O)N1CCC(C(=O)N2CCOC(CC3CCCCC3)C2)CC1 (stereo not given) is -4.464

Percent Effect measured on `COc1ccc(CNc2nnc(CC(C)(C)C)o2)cc1C#N` = -29.2

Entry Cc1ccccc1CS(=O)(=O)CC(=O)NC1CCCCNC1=O (stereo not given) ; Percent Effect = 5.447

Summary for this molecule, O=C(NCC1CC(=O)N(CCc2ccccc2)C1)c1c(F)cccc1F (stereo not given) : Percent Effect is -5.982

So, `COCC(=O)N1CCC(c2cc(-c3ccc(N)nc3)cc(C)n2)CC1` ? Its Percent Effect was 134.8

The molecule listed as O=C1NCCCCC1NC(=O)C1(c2ccccc2)CCOCC1 (stereo not given) has a reported Percent Effect of -10.73

Documented Percent Effect of O=C(CS(=O)(=O)Cc1ccccc1)NC1CCCCNC1=O (stereo not given) : 109

Notebook: `COCC(=O)N1CCC(c2cc(C(F)(F)F)n3ccnc3n2)CC1` , Percent Effect read as -3.76

Memo: `CC(C)(C)c1nnc(NCc2ccc(F)cc2)o1` , reported Percent Effect: -7.164

###

test system: Wolbachia pipientis; assay: Anti-Wolbachia Cell-Based Screen; type: functional; design: scale not given: in the data most compounds retested in dose-response had high values; conditions: 5 µM
About 13,000 (27%) of roughly 48,000 compounds showed an effect of 50% or more. The list shows a part of the results.
Measured Quantity: Percent Effect (%)
Note: unit % is implicit; provide only the numeric part.

INSERT INTO assay_data (molecule, experimental_system, experimental_value) VALUES
  ('CNC(=O)CN1CCCC(Cc2ccccc2OC)C1 (centres undefined)', 'Wolbachia pipientis', 4.844),
  ('CNC(=O)CN1CCC(CN(C)Cc2ccccc2N(C)C)CC1', 'Wolbachia pipientis', 105.8),
  ('CNC(=O)CN1CCC(CN(C)Cc2ccc(C)cc2C)CC1', 'Wolbachia pipientis', 95.31);

// COc1ccc(C(C(=O)O)N2CCCN(C3CCCCC3)CC2)cn1 (centres undefined) : Percent Effect value = 6.723

###

system: Wolbachia pipientis; assay: Anti-Wolbachia Cell-Based Screen; format: functional; parameters: scale not given: in the data most compounds retested in dose-response had high values; details: 5 µM
Hit rate of the full screen: of about 48,000 compounds, about 13,000 (27%) showed an effect of 50% or more. The list shows a part of the results.
Listed next: entries and their corresponding Percent Effect.
Reply numerically in %, unit not repeated.

Recorded results for 4 compounds are shown here.
INSERT INTO results (compound, experimental_value) VALUES
  ('O=C(O)CCc1cn(C2CCN(c3ncccc3Cl)CC2)nn1', -1.723),
  ('Cl.Cl.c1csc(N2[C@H](Cn3cncn3)C[C@@H]3CNCC[C@@H]32)n1', 3.496),
  ('NCC1Cc2cc(-c3cncc(C(=O)N4CCOCC4)n3)cc(Cl)c2O1 (stereo unspecified)', -2.851),
  ('Cc1cc(C)nc(N2CCC(c3cccc(CCC(=O)O)n3)CC2)n1', 80.96);

Next compound, Percent Effect to be filled in.
Percent Effect for Cc1ccc(-n2nc(C)c3c2NC(=O)CC3c2cnc(N)s2)cc1 (stereo unspecified) is 19.39

###

test system: Wolbachia pipientis; assay: Anti-Wolbachia Cell-Based Screen; type: functional; parameters: scale not given: in the data most compounds retested in dose-response had high values; settings: 5 µM
Among all 48,000 compounds or so, about 13,000 (27%) showed an effect of 50% or more. The list shows a part of the results.
In this section, each of the compounds is paired with its reported Percent Effect.
Your answer should be a plain number; it is taken to be in %.

Sample answers from the record:
INSERT INTO assay_data (compound, measured_quantity, experimental_value) VALUES
  ('COCC1CN(Cc2ccc(C)o2)Cc2ncn(CC3CC3)c21 (stereo unspecified)', 'Percent Effect', 4.542),
  ('COCC1CN(C(=O)CS(C)(=O)=O)Cc2ncn(CC3CC3)c21 (stereo unspecified)', 'Percent Effect', 98.19),
  ('COc1cccc(CNCc2c(C(C)C)nn(C)c2N(C)C)c1OC', 'Percent Effect', -9.439),
  ('NC(=O)CC1CCN(S(=O)(=O)c2cnn(-c3ccccc3)c2)CC1', 'Percent Effect', 23.91);

GET /value?item= `O=C(CCNC(=O)NC1CCN(C2CC2)CC1)NCc1ccccc1` &field=Percent Effect returns -15.75

# compound COc1ccc(CNC(C)c2cccc(Cl)c2)c(OC)c1OC (stereo unspecified) ; its Percent Effect = 0.8374

The compound listed as `Cc1cc(N2C[C@H](C3CC3)[C@@H](N)C2)nc(N2CCCCC2)n1` shows Percent Effect equal to 11.86

Percent Effect in this record for CCOC(=O)C1CN(S(=O)(=O)C2CC2)Cc2ncn(CC)c21 (stereo unspecified) : -2.058

The value of Percent Effect measured for the compound CC(C)c1nn(C)c(Cl)c1CNCC(O)c1cccc(F)c1.Cl (stereo unspecified) turned out to be 10.68

Briefly, Percent Effect measured for CC(C)c1nn(C)c(N(C)C)c1CNCC(O)c1ccccc1 (stereo unspecified) : 92.25

Lab note: CCn1cc2c(n1)CN(S(=O)(=O)c1ccc(C)cc1)CC2COC (stereo unspecified) gave Percent Effect of -1.212

For this compound ( Cc1nn(C)c(N(C)C)c1CNCC(O)c1ccccc1 (stereo unspecified) ), measured Percent Effect is -19.87

Record `Cc1cccc2c1nc1n2[C@@H](CNC(=O)C2CCOCC2)COC1` . Reported Percent Effect: -17.69

So for `O=C(c1ncn2c1CNS(=O)(=O)c1ccccc1-2)N1CCCCC1` , the logged Percent Effect turned out to be -12.5

The compound listed as `CCCn1cc(C(=O)N(C)Cc2nc(-c3ccccn3)no2)c(C)n1` has a reported Percent Effect of 4.948

For record `COCCCN(C)[C@@H]1c2ccccc2C2(CCNCC2)[C@H]1O` the listed Percent Effect is 9.06
